Target: T1, cyno PD-1 (SPR analyte) (cynomolgus monkey)
T1 construct: Construct of the soluble analyte is not described; also called cynomolgus PD-1
Test: SPR, ProteOn XPR36, mAb captured by anti-human IgG Fc, cyno PD-1 as analyte, 25 C
Assay metric: koff (s⁻¹)
Number in s⁻¹, nothing else.

>>> number("PD1B1090 (antibody, human IgG1, kappa, V domains shown, IgG1; also called PD1H585/PD1L651; E57Y (VH), V29F (VL) variant of PD1B878) VH: QVQLVQSGSELKKPGASVKVSCKASGYTFTDYSMHWVRQAPGQGLEWMGWINIETGYPTYAQGFTGRFVFSLDTSVSTAYLQISSLKAEDTAVYFCARDYYGTYFYAMDYWGQGTLVTVSS VL: EIVLTQSPATLSLSPGERATLSCTASSSFSSSYLHWYQQKPGLAPRLLIYSTSNLASGIPDRFSGSGSGTDYTLTISRLEPEDFAVYYCHQYHRSPLTFGQGTKLEIKR")
0.000185
>>> number("PD1B1095 (antibody, human IgG1, kappa, V domains shown, IgG1; also called PD1H587/PD1L652; E57W (VH), S30P (VL) variant of PD1B878) VH: QVQLVQSGSELKKPGASVKVSCKASGYTFTDYSMHWVRQAPGQGLEWMGWINIETGWPTYAQGFTGRFVFSLDTSVSTAYLQISSLKAEDTAVYFCARDYYGTYFYAMDYWGQGTLVTVSS VL: EIVLTQSPATLSLSPGERATLSCTASSSVPSSYLHWYQQKPGLAPRLLIYSTSNLASGIPDRFSGSGSGTDYTLTISRLEPEDFAVYYCHQYHRSPLTFGQGTKLEIKR")
0.000781

Okay, now this binder:
I'd like to know its koff. The binder in question is PD1B1088 (antibody, human IgG1, kappa, V domains shown, IgG1; also called PD1H405/PD1L651; V29F (VL) variant of PD1B878) VH: QVQLVQSGSELKKPGASVKVSCKASGYTFTDYSMHWVRQAPGQGLEWMGWINIETGEPTYAQGFTGRFVFSLDTSVSTAYLQISSLKAEDTAVYFCARDYYGTYFYAMDYWGQGTLVTVSS VL: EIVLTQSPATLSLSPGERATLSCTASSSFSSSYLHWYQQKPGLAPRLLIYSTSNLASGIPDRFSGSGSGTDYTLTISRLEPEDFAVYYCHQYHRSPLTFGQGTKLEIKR 0.00479
